Listed below: pEC50 values for each entry.
# study.system: SARS-CoV-2 Mpro (Severe acute respiratory syndrome coronavirus 2 (2019-nCoV) (SARS-CoV-2), UniProt P0DTD1)
As a rule, pEC50 stands for the negative log10 of the concentration, concentration in M.

Consider the reported pEC50 for these compounds:
smiles: O=C(N[C@@H]1CCN(c2c(C(=O)N3CC4CC(C3)O4)cc(Br)cc2C(F)(F)F)C1)c1cc(=O)[nH]c2c(F)cccc12
pEC50: 9.38
//
smiles: NC(=O)c1cc(C(=O)N2CCOCC2)c(N2CC[C@@H](NC(=O)c3cc(=O)[nH]c4c(F)cccc34)C2)c(C(F)(F)F)c1
pEC50: 9.28

For `O=C(N[C@@H]1CCN(c2c(C(=O)N3CCCCC3)cc(Br)cc2C(F)(F)F)C1)c1cc(=O)[nH]c2c(F)cccc12` the compound record lists pEC50 as 9.28

For `Cc1cc(C(=O)N2CCOCC2)c(N2CC[C@@H](NC(=O)c3cc(C)[nH]c(=O)c3F)C2)c(C2CC2)c1` the compound record lists pEC50 as 9.32
